Origin of measurements: the Bradley open melting point set (2014)

observable: melting point (°C)

A = CC1(C(=O)OC2OC(CO)C(O)C(O)C2O)CCCC2(C)C3CCC4CC3(CCC12)CC4(CO)OC1OC(CO)C(O)C(O)C1O (stereo unspecified)
B = Cc1cc(B(O)O)sc1C=O
// query Identify the entry with the smaller melting point: A or B . Let me know the label of the one you choose.
// result B
(B: 119 °C, A: 198 °C)

a = N#Cc1cccc(-c2ccccc2)c1
b = COc1cc(C)ccc1O
// query Identify the entry with the smaller melting point: a or b . Let me know the label of the one you choose.
// result b

I = Cc1ccc([N+](=O)[O-])cc1Br
II = Clc1cccc(-c2nnn[nH]2)c1
// query Identify the entry with the smaller melting point: I or II . Let me know the label of the one you choose.
// result I

I = CC1=CC[C@@H]2C[C@H]1C2(C)C
II = OCc1ccc(O)cc1 [4-hydroxybenzyl_alcohol]
III = CNC(C)=O [N-methylacetamide]
IV = C=C(C#N)C(=O)OCC [Ethyl 2-cyanoacrylate]
// query Order the records so the highest melting point appears first and the lowest last. List the labels in the requested order.
// result II, III, IV, I
(II: 112 °C, III: 27 °C, IV: -22 °C, I: -62 °C)

I = CC(=O)[C@H]1CC[C@H]2[C@@H]3CCC4=CC(=O)CC[C@]4(C)[C@H]3CC[C@]12C
II = COC(=O)CC(C)=O [methyl acetoacetate]
// query Identify the entry with the smaller melting point: I or II . Let me know the label of the one you choose.
// result II

A = NC(=O)N1c2ccccc2C=Cc2ccccc21 [Carbamazepine]
B = O=C1SCCN1C(=O)c1ccccc1
// query Identify the entry with the smaller melting point: A or B . Let me know the label of the one you choose.
// result B
(B: 121 °C, A: 190 °C)

A = CCOC(=O)C(C#N)=C(SC)N(C)C [ethyl 2-cyano-3-(dimethylamino)-3-(methylthio)acrylate]
B = COc1cc(Cl)cc(Cl)c1
// query Identify the entry with the smaller melting point: A or B . Let me know the label of the one you choose.
// result B

I = CN(C)c1ccc(CNC2=CC(=O)c3ccccc3C2=O)cc1 [2-{[4-(dimethylamino)benzyl]amino}naphthalene-1,4-dione]
II = COc1ccc(CC#N)cc1OC
III = CC(C)(C)Br
IV = CCOc1ccc(C(C)=O)cc1
// query Reorder the items by melting point, least to greatest. List the labels in the requested order.
// result III, IV, II, I

----------
observable: melting point (°C)

- compound: "O=[N+]([O-])c1cc[n+]([O-])c(Cl)c1 [2-chloro-4-nitropyridine n-oxide]"
  melting point / °C: 154
- compound: "COS(C)(=O)=O [Methyl methanesulfonate]"
  melting point / °C: 20
- compound: "N#Cc1cccc(C=O)c1 [3-cyanobenzaldehyde]"
  melting point / °C: 77
- compound: "N#Cc1ccccc1[N+](=O)[O-] [2-nitrobenzonitrile]"
  melting point / °C: 109
- compound: "OC[C@H]1O[C@@H]2O[C@H]3[C@H](O)[C@@H](O)[C@@H](O[C@H]4[C@H](O)[C@@H](O)[C@@H](O[C@H]5[C@H](O)[C@@H](O)[C@@H](O[C@H]6[C@H](O)[C@@H](O)[C@@H](O[C@H]7[C@H](O)[C@@H](O)[C@@H](O[C@H]8[C@H](O)[C@@H](O)[C@@H](O[C@H]1[C@H](O)[C@H]2O)O[C@@H]8CO)O[C@@H]7CO)O[C@@H]6CO)O[C@@H]5CO)O[C@@H]4CO)O[C@@H]3CO"
  melting point / °C: 290
- compound: "C1=CC2=NC3=C(CCCC3)C2=CC1 [1,2,3,4-TETRAHYDROCARBAZOLE]"
  melting point / °C: 118
- compound: "O=C(O)COc1ccc(Cl)cc1Cl [(2,4-Dichlorophenoxy)acetic acid]"
  melting point / °C: 138
- compound: "CCCCCCCCCCCCCl [1-chlorododecane]"
  melting point / °C: -9
